Recorded Body weight reduction at 30 nmol/kg (% reduction compared to vehicle)(Day11), one value per entry.
test: Body weight and food intake in C57BL/6 mice, fusion protein conjugates, 30 nmol/kg daily 10 days; type: in vivo
Field: numeric (%). Do not append units.

| Molecule | Value |
| --- | --- |
| MLC093: fusion polypeptide SEQ ID NO: 381 conjugated with Moiety B at 33C of Linker (conjugate, Moiety B conjugated at linker Cys33) HGEGTFTSDVSSYLEEQAAKEFIAWLVRGGGGAQPGAQPGAQPGAQPGAQPGAQPGAQPGAQPCQEPGAQPGQEPGAQPGQEPGAQPGQEPGAQPGQEPGAQPGQEPGAQPARQGDHCPLGPGRCCRLHTVRASLEDLGWADWVLSPREVQVTMCIGACPSQFRAANLHAQIKTSLHRLKPDTVPAPCCVPASYNPMVLIQKTDTGVSLQTYDDLLAKDCHCI | 26.2 |

Now examine the next entry.
Incoming: Which Body weight reduction at 30 nmol/kg (% reduction compared to vehicle)(Day11) reading was recorded for the molecule MLC090: fusion polypeptide SEQ ID NO: 379 conjugated with Moiety C at 39C of Linker (conjugate, Moiety C conjugated at linker Cys39) HGEGTFTSDVSSYLEEQAAKEFIAWLVRGGGGAQPGAQPGAQPGAQPGAQPGAQPGAQPGAQPGQEPGQCPGQEPGAQPGQEPGAQPGQEPGAQPGQEPGAQPGQEPGAQPARQGDHCPLGPGRCCRLHTVRASLEDLGWADWVLSPREVQVTMCIGACPSQFRAANLHAQIKTSLHRLKPDTVPAPCCVPASYNPMVLIQKTDTGVSLQTYDDLLAKDCHCI ?
Outgoing: 24.5

// provenance: patent US11453711B2
